test system: Bacteria; assay: Inhibition of […] (unknown origin) using imipenem as substrate at 50 uM by spectrophotometric assay relative to control
Reported Metric: inhibition (%)
Only the number, expressed in %, is required.

Check out these entries, answers already filled in.
Smiles Code	Reported Metric	Endpoint Unit	Observed Measurement
O=C1/C(=C/c2ccc(N3CCCCC3)cc2)Oc2cc(O)cc(O)c21	inhibition	%	74
Oc1cccc2ccc(/C=C/c3ccc4c(c3)OCO4)nc12	inhibition	%	93
Oc1cccc2ccc(CCc3ccc4c(c3)OCO4)nc12	inhibition	%	90
Oc1cccc2ccc(/C=C/c3ccccc3)nc12	inhibition	%	95
Oc1cccc2ccc(CCc3ccccc3)nc12	inhibition	%	85
O=C(/C=C/c1ccc(N2CCCCC2)cc1)c1ccccc1O	inhibition	%	35
O=C1/C(=C/c2ccc(O)c(O)c2)Cc2cc(O)cc(O)c21	inhibition	%	77
O=C(/C=C/c1ccc(N2CCOCC2)cc1)c1ccccc1O	inhibition	%	24

// next entry
Param item = CCCCOc1ccc(/C=C2\Oc3cc(O)cc(O)c3C2=O)c(O)c1 ; retrieve measured inhibition. 46
